Ref: ChEMBL document CHEMBL1154947

Target sequence: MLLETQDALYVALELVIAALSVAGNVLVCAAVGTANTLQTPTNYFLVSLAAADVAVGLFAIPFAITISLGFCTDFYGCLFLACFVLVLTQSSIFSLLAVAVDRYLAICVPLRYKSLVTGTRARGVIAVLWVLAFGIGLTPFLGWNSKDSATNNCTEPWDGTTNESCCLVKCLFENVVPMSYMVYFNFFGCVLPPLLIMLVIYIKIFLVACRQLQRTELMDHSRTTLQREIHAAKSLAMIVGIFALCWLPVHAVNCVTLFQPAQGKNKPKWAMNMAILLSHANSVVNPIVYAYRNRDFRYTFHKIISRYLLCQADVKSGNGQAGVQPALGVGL
pKi: −log10 of the molar value.
measured_parameter: pKi

Illustrative cases are given below, each with its answer.
> print(dat)
                              sample.smiles  measured.parameter  observed.value
1  O=C(Nc1ccc(-c2ccncc2)c(-c2ccc(F)cc2)n1)C1CC1                 pKi            8.40
2  O=C(Nc1ccc(-c2ccncc2)c(-c2cc[nH]n2)n1)C1CC1                 pKi            6.69

P: O=C(Nc1ccc(-c2ccncc2)c(-n2cccn2)n1)C1CC1
Q: CC(=O)c1nc(NC(=O)C2CC2)ccc1-c1ccncc1
R: O=C(Nc1ccc(-c2ccncc2)c(-c2ccccc2F)n1)C1CC1
S: O=C(Nc1ccc(-c2ccncc2)c(-c2cocn2)n1)C1CC1
T: CC(=O)Nc1ccc(-c2ccncc2)c(-c2cccc(F)c2)n1
[ask] Hey, quick one: sort these by pKi, low to high? Sort the labels as requested; that list is your answer.
[reply] Q, S, P, T, R

###

# tested_system: UniProt:P0DMS8
# Sequence (P0DMS8 whole entry): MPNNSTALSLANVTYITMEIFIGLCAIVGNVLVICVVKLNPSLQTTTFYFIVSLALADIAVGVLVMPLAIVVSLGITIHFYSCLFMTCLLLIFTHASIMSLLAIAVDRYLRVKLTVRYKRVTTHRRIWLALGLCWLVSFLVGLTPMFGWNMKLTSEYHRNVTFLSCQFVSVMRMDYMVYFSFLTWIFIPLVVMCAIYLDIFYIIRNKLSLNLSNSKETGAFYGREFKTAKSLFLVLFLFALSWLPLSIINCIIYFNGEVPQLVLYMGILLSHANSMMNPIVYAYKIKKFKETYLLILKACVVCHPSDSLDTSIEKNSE
# procedure_details: Inhibition of [3H]NECA binding to human adenosine A3 receptor expressed in human HeLa cells at 1 uM after 3 hrs by filtration binding assay
# Type: cell-based
measured_parameter: inhibition (%)

Here is how some molecules turned out for inhibition.
> print(dat)
                              sample.smiles  observed.value
1        O=C(Nc1ccc(-c2ccncc2)c(Cl)n1)C1CC1              14
2  O=C(Nc1ccc(-c2ccncc2)c(-c2ncco2)n1)C1CC1              22
3      CC(=O)c1nc(NC(=O)C2CC2)ccc1-c1ccncc1               2
4  O=C(Nc1ccc(-c2ccncc2)c(-c2ccncc2)n1)C1CC1               6
5  O=C(Nc1ccc(-c2ccncc2)c(-n2cccn2)n1)C1CC1               2
6  O=C(Nc1ccc(-c2ccncc2)c(-c2ccncn2)n1)C1CC1               3

P: O=C(Nc1ccc(-c2ccncc2)c(-c2cccnc2)n1)C1CC1
Q: O=C(Nc1ccc(-c2ccncc2)c(-c2cnco2)n1)C1CC1
[ask] Quick one: lower inhibition, P or Q ? Refer to your chosen entry by its label in the reply.
[reply] Q

I: O=C(Nc1ccc(-c2ccncc2)c(-c2cocn2)n1)C1CC1
II: O=C(Nc1ccc(-c2ccncc2)cn1)C1CC1
[ask] Task for the reader: decide whether I or II has the larger inhibition. Write down the label attached to your selection.
[reply] I

P: O=C(Nc1ccc(-c2ccncc2)c(-c2nccs2)n1)C1CC1
Q: O=C(Nc1ccc(-c2ccncc2)c(-c2ccccn2)n1)C1CC1
[ask] Of the two listed items, P and Q , which carries the larger inhibition figure? Selection: enter the item's label.
[reply] P

a: O=C(Nc1ccc(-c2ccncc2)c(-c2ccc(F)cc2)n1)C1CC1
b: O=C(Nc1ccc(-c2ccncc2)c(-c2cc[nH]n2)n1)C1CC1
c: O=C(Nc1ccc(-c2ccncc2F)c(-c2ccco2)n1)C1CC1
[ask] Thanks in advance: please rank these 3 entries by inhibition, highest to lowest. To answer, arrange all of the labels according to the requested order.
[reply] a, c, b
(a: 27%, c: 11%, b: 1%)

I: CC(=O)Nc1ccc(-c2ccncn2)c(-c2ccco2)n1
II: CC(=O)Nc1ncc(-c2ccncn2)c(-c2ccco2)n1
[ask] Param metric = inhibition; output whichever of I , II has the minimum value. // return label of chosen record
[reply] II
(II: 2%, I: 28%)

###

# tested_system: Adenosine receptor A2a (Homo sapiens, UniProt P29274)
# Sequence (P29274 whole entry): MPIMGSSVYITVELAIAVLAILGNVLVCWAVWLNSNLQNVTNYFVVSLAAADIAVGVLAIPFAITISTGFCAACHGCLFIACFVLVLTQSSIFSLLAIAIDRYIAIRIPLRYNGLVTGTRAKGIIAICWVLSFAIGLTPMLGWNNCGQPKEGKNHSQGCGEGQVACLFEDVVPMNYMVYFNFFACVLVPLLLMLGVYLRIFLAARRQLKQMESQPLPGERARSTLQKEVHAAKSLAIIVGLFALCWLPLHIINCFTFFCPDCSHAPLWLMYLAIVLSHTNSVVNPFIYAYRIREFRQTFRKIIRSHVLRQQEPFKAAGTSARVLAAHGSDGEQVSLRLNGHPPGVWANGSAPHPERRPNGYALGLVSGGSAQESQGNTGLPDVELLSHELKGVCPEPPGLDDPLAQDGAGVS
measured_parameter: Ki (µM)

1: O=C(Nc1ccc(-c2ccncc2)c(-c2ncco2)n1)C1CC1
2: O=C(Nc1ccc(-c2ccncc2)c(-c2ccncc2)n1)C1CC1
[ask] Could you determine which record has the numerically smaller Ki? Candidates: 1 and 2 Lab note: record the label of whichever item you select.
[reply] 2
(2: 0.163 µM, 1: 1.36 µM)

P: O=C(Nc1ccc(-c2ccncc2)c(-c2ccccn2)n1)C1CC1
Q: O=C(Nc1ccc(-c2ccncc2)c(-c2cccnc2)n1)C1CC1
[ask] Lab note: check whether P or Q has the lower measured Ki. Identify your pick by its label.
[reply] P
(P: 0.862 µM, Q: 1.47 µM)

###

# procedure_details: AUC (0 to infinity) in rat at 1 mg/kg, iv
# Assay type: ADME, organism-based
# Parameters: time infinity, dose 1 mg/kg, route intravenous
# measurement_parameters: plasma
measured_parameter: AUC(0-inf) (µg·h/mL)

> print(dat)
                              sample.smiles  unit.string  observed.value
1  O=C(Nc1ccc(-c2ccncc2)c(-c2ncco2)n1)C1CC1      µg·h/mL           0.533

I: O=C(Nc1ccc(-c2ccncn2)c(-c2ccco2)n1)C1CC1
II: O=C(Nc1ccc(-c2ccncc2)c(-c2ccccn2)n1)C1CC1
[ask] // compare: I vs II , metric AUC(0-inf), want the smaller Answer by stating the label of the chosen item.
[reply] I

###

# procedure_details: Volume of distribution at steady state in rat at 1 mg/kg, iv
# Type: ADME, organism-based
# Design: dose 1 mg/kg, route intravenous
# measurement_parameters: in vivo, read-out: Vdss
measured_parameter: Vd (L/kg)

> print(dat)
                              sample.smiles  observed.value
1  O=C(Nc1ccc(-c2ccncn2)c(-c2ccco2)n1)C1CC1             1.6

A: O=C(Nc1ccc(-c2ccncc2)c(-c2ccccn2)n1)C1CC1
B: O=C(Nc1ccc(-c2ccncc2)c(-c2ncco2)n1)C1CC1
[ask] Of A and B , whose reported Vd is numerically smaller? Please indicate the selected item by its label.
[reply] A

###

# tested_system: UniProtKB P29274
measured_parameter: Ki (nM)

> print(dat)
                              sample.smiles  unit.string  observed.value
1  O=C(Nc1ccc(-c2ccncc2)c(-c2nccs2)n1)C1CC1           nM             302
2  O=C(Nc1ccc(-c2ccncc2)c(-c2ccc(F)cc2)n1)C1CC1           nM              39
3  O=C(Nc1ccc(-c2ccncc2)c(-n2cccn2)n1)C1CC1           nM            1440
4  O=C(Nc1ccc(-c2ccncc2)c(-c2cnco2)n1)C1CC1           nM             635

a: O=C(Nc1ccc(-c2ccncc2)c(-c2cccc(F)c2)n1)C1CC1
b: O=C(Nc1ccc(-c2ccncc2Cl)c(-c2ccco2)n1)C1CC1
[ask] Could you determine which record has the numerically smaller Ki? Candidates: a and b Please indicate the selected item by its label.
[reply] a
(a: 57 nM, b: 147 nM)

###

# procedure_details: Metabolic stability in human liver microsomes assessed as turnover at 5 uM after 30 mins in presence of NADPH
# Format: ADME, Microsome
# measurement_parameters: read-out: Activity
measured_parameter: metabolised at 0.5 h, 5 µM (%)

I: O=C(Nc1ccc(-c2ccncc2)c(-c2ccccn2)n1)C1CC1
II: O=C(Nc1ccc(-c2ccncc2)c(-c2ncco2)n1)C1CC1
[ask] Between the two listed entries I and II , which has its metabolised at 0.5 h, 5 µM at the higher number? Select an item and report its label.
[reply] II

###

# tested_system: Adenosine receptor A2a (Homo sapiens, UniProt P29274)
# procedure_details: Inhibition of [3H]ZM241385 binding to human adenosine A2A receptor expressed in human HeLa cells at 1 uM after 1 hr by scintillation proximity assay
# Format: cell-based
measured_parameter: inhibition (%)

# example entries with known answers
> print(dat)
                          sample.smiles  observed.value
1  CC(=O)Nc1ncc(-c2ccncn2)c(-c2ccco2)n1              10
2  CC(=O)c1nc(NC(=O)C2CC2)ccc1-c1ccncc1               2
3    O=C(Nc1ccc(-c2ccncc2)c(Cl)n1)C1CC1               7

1: CC(=O)Nc1ccc(-c2ccncn2)c(-c2ccco2)n1
2: O=C(Nc1ccc(-c2ccncc2)c(-c2ccncn2)n1)C1CC1
3: O=C(Nc1ccc(-c2ccncc2)cn1)C1CC1
4: O=C(Nc1ccc(-c2ccncc2)c(-c2cc[nH]n2)n1)C1CC1
[ask] With regard to inhibition, arrange the entries in ascending order, please. Give the labels in the order requested.
[reply] 3, 4, 2, 1
(3: 2%, 4: 4%, 2: 9%, 1: 20%)
